Origin of the recorded values: patent US20100168102A9

Readings of IC50 for the listed compounds
- target: PKC epsilon (Homo sapiens, UniProt Q02156)
- Construct: purchased Invitrogen P2282
- Sequence (Q02156 whole entry): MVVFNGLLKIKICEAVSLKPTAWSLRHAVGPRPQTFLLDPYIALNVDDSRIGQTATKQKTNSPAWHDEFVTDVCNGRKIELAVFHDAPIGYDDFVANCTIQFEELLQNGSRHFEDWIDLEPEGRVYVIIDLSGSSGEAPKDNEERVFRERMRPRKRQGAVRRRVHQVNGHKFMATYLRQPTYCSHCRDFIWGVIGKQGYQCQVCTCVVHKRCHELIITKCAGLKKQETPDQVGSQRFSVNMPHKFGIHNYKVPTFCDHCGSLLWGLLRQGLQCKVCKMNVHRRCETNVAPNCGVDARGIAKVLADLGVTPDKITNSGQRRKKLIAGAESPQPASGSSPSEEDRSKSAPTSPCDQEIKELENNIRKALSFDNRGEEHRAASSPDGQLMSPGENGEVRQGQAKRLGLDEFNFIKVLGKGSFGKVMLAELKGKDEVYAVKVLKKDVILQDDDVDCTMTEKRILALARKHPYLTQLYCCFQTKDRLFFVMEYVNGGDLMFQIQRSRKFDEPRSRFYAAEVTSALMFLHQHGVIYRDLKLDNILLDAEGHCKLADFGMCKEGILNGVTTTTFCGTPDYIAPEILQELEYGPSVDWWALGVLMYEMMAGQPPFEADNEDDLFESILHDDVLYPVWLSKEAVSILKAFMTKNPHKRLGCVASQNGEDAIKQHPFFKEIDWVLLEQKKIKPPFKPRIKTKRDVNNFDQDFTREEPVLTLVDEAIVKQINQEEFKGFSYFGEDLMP
- procedure_summary: Biochemical assay for PKC epsilon (fluorescence polarization, Protein Kinase C Assay Kit, Red)
- experimental_parameters: compounds of Formula XIV, Table 3; read-out: IC50 μM PKCε
- Experimental: The compounds were tested for inhibition of PKC epsilon. The inhibition assays were performed with a fluorescence polarization (FP) assay using the commercially available Protein Kinase C Assay Kit, Red, from Invitrogen (Product ID. No. P2941), essentially in accordance with the protocol supplied by the manufacturer. […] The results were fitted to a curve using the XL-Fit algorithm and […] were calculated for each fitted curve, again using the XL-Fit algorithm.

Recorded results for 2 compounds are shown here.
[[record]]
compound = "CC(CNC(=O)CC(N)c1ccc(C(=O)Nc2ccncc2)cc1)c1ccccc1 (centres unmarked)"
measurement_name = "IC50"
value_measured = "0.5 to 5 µM"

[[record]]
compound = "CC(NC(=O)CC(N)c1ccc(C(=O)Nc2ccncc2)cc1)c1cccc2ccccc12 (centres unmarked) [Compound 229]"
measurement_name = "IC50"
value_measured = "0.5 to 5 µM"


IC50 recorded for this compound, CC(C)(NC(=O)CC(N)c1ccc(C(=O)Nc2ccncc2)cc1)c1ccccc1 (centres unmarked) , is 0.5 to 5 µM

IC50 recorded for this compound, NC(CC(=O)NC(c1ccccc1)c1ccc(Cl)cc1)c1ccc(C(=O)Nc2ccncc2)cc1 (centres unmarked) , is 0.5 to 5 µM

IC50 recorded for this compound, NC(CC(=O)NCc1cccc(Cl)c1)c1ccc(C(=O)Nc2ccncc2)cc1 (centres unmarked) , is 0.05 to 0.5 µM

IC50 recorded for this compound, COc1ccc(OC)c(CCNC(=O)CC(N)c2ccc(C(=O)Nc3ccncc3)cc2)c1 (centres unmarked) , is 5 to 50 µM

IC50 recorded for this compound, NC(CC(=O)N[C@@H]1CCc2ccccc21)c1ccc(C(=O)Nc2ccncc2)cc1 (some centres unmarked) , is 0.05 to 0.5 µM

IC50 recorded for this compound, NC(CC(=O)N[C@H]1CCc2ccccc21)c1ccc(C(=O)Nc2ccncc2)cc1 (some centres unmarked) , is 0.5 to 5 µM

----------
- target: human ROCKα/ROCKII mix (Homo sapiens, UniProt O75116)
- Construct: purchased Upstate Biotechnology 14-451
- Sequence (O75116 11-552 limits assumed): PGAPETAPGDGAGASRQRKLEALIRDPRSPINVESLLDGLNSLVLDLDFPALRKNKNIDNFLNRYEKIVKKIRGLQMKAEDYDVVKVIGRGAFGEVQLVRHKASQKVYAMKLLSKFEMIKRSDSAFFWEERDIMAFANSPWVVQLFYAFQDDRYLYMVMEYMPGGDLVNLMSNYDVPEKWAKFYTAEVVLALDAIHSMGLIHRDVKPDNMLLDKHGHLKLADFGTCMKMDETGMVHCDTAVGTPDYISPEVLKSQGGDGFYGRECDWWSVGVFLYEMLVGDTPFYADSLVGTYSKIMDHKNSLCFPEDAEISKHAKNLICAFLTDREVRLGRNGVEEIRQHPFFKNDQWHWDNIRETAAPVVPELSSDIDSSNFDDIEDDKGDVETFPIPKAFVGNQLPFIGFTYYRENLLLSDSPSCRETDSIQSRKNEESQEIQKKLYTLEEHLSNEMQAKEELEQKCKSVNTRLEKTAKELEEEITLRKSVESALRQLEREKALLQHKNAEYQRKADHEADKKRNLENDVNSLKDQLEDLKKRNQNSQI
- procedure_summary: Biochemical assay for ROCK (fluorescence polarization, ROCK IMAP Kit)
- experimental_parameters: Table 2, compounds of Formula XIII
Readings of IC50 for the listed compounds

Recorded results for 3 compounds are shown here.
[[record]]
compound = "CC(C)(C(=O)NCC(N)c1ccc(C(=O)Nc2ccncc2)cc1)c1ccc(F)cc1 (stereo not shown)"
value_measured = "0.05 to 0.5 µM"

[[record]]
compound = "COc1ccc2[nH]c(C(=O)NCC(N)c3ccc(C(=O)Nc4ccncc4)cc3)cc2c1 (stereo not shown)"
value_measured = "0.5 to 5 µM"

[[record]]
compound = "NC(CNC(=O)c1cccnc1)c1ccc(C(=O)Nc2ccncc2)cc1 (stereo not shown)"
value_measured = "0.5 to 5 µM"


IC50 recorded for this compound, CS(=O)(=O)c1cccc(C(=O)NCC(N)c2ccc(C(=O)Nc3ccncc3)cc2)c1 (stereo not shown) , is 0.5 to 5 µM

----------
- target: human ROCKα/ROCKII mix (Homo sapiens)
- Construct: purchased Upstate Biotechnology 14-451
- procedure_summary: Biochemical assay for ROCK (fluorescence polarization, ROCK IMAP Kit)
- experimental_parameters: Table 2, compounds of Formula XIII
Readings of IC50 for the listed compounds

[[record]]
compound = "COc1ccc(C2(C(=O)NCC(N)c3ccc(C(=O)Nc4ccncc4)cc3)CCCC2)cc1 (centres unmarked)"
measurement_name = "IC50"
value_measured = "0.05 to 0.5 µM"

[[record]]
compound = "CC(=O)NCC(N)c1ccc(C(=O)Nc2ccncc2)cc1 (centres unmarked)"
measurement_name = "IC50"
value_measured = "0.5 to 5 µM"

[[record]]
compound = "CNS(=O)(=O)c1ccc(C(=O)NCC(N)c2ccc(C(=O)Nc3ccncc3)cc2)cc1 (centres unmarked)"
measurement_name = "IC50"
value_measured = "0.5 to 5 µM"

[[record]]
compound = "COc1ccc2c(c1)CCCC2C(=O)NCC(N)c1ccc(C(=O)Nc2ccncc2)cc1 (centres unmarked)"
measurement_name = "IC50"
value_measured = "0.05 to 0.5 µM"


IC50 recorded for this compound, NC(CNC(=O)C1(c2ccccc2)CC1)c1ccc(C(=O)Nc2ccncc2)cc1 (centres unmarked) , is 0.5 to 5 µM

IC50 recorded for this compound, COc1cccc(C(=O)NCC(N)c2ccc(C(=O)Nc3ccncc3)cc2)c1 (centres unmarked) , is 0.5 to 5 µM

IC50 recorded for this compound, Cc1ccc(C(=O)NCC(N)c2ccc(C(=O)Nc3ccncc3)cc2)s1 (centres unmarked) , is 0.5 to 5 µM
